Where do the numbers come from? From ChEMBL document CHEMBL4364272.

Assign Vd to each entry below.
- Run Description: Volume of distribution at steady state in Sprague-Dawley rat at 1 mg/kg, iv or 10 mg/kg, po administered via gavage measured upto 24 hrs by LC-MS/MS
- Assay type: ADME, organism-based
- Experimental Parameters: in vivo, read-out: Vdss

Molecule	Recorded Result
CC(C)Oc1cc([C@@](Cc2ccccc2)(NC(=O)C(N)C(O)(C(F)(F)F)C(F)(F)F)c2cc(F)cc(OC(F)(F)C(F)F)c2)ccc1F (some centres not stated)	0.5 L/kg

Just so you know, measured Vd for NC(C(=O)N[C@@](Cc1ccccc1)(c1cc(F)cc(OC(F)(F)C(F)F)c1)c1ccc(F)c(OC2CC2)c1)C(O)(C(F)(F)F)C(F)(F)F (some centres not stated) came out at 1.5 L/kg

###

- Tested on: CYP11B2
- Run Description: Upregulation of CYP11B2 gene expression in human NCI-H295R cells at 0.1 uM measured after 24 hrs relative to control
- Type: ADME, cell-based
- Experimental Parameters: read-out: FC
Quantity: fold induction at 24 h, 0.1 µM
Numbers only.

Just so you know, measured fold induction at 24 h, 0.1 µM for CC[C@H](C)[C@H](NC(=O)[C@H](Cc1ccc(O)cc1)NC(=O)[C@@H](NC(=O)[C@H](CCCNC(=N)N)NC(=O)[C@@H](N)CC(=O)O)C(C)C)C(=O)N[C@@H](Cc1cnc[nH]1)C(=O)N1CCC[C@H]1C(=O)N[C@@H](Cc1ccccc1)C(=O)O [ANGIOTENSIN II] came out at 4

###

- Run Description: Oral bioavailability in Balb/c mouse at 10 mg/kg measured upto 24 hrs by LC-MS/MS
- Format: ADME, organism-based
- Experimental Parameters: in vivo
Quantity: bioavailability (%)
Answers are plain numbers, in %.

Just so you know, measured bioavailability for NC(C(=O)N[C@@](Cc1ccccc1)(c1cc(F)cc(OC(F)(F)C(F)F)c1)c1ccc(F)c(OC2CC2)c1)C(O)(C(F)(F)F)C(F)(F)F (stereo partly specified) came out at 18

###

- Assayed Target: Cholesteryl ester transfer protein (Homo sapiens, UniProt P11597)
- Sequence (P11597 whole entry): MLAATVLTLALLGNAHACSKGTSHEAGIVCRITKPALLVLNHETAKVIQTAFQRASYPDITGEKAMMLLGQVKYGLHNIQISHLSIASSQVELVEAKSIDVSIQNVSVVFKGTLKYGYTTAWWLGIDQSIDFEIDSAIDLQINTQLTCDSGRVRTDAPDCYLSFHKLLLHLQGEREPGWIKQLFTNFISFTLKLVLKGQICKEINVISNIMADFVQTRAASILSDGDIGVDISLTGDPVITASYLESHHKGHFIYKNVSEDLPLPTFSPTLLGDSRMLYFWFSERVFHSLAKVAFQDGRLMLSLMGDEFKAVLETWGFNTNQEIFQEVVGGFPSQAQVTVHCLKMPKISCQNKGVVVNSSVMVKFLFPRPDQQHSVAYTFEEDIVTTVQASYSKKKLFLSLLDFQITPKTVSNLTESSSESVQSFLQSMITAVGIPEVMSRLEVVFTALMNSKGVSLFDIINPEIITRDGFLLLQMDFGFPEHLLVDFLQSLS
- Run Description: Inhibition of CETP in human whole plasma assessed as reduction in [3H]-CE/HDL transfer incubated for 2.5 hrs by topcount scintillation counting assay
- Format: cell-free
The threshold is 300 nM. Values of IC50 beneath it are tagged Y; values meeting or exceeding it are tagged N.

Here's what some known entries look like.
Compound	Assayed Target	Discrete Label
CC(C)Oc1cc([C@@](Cc2ccccc2)(NC(=O)C(N)C(O)(C(F)(F)F)C(F)(F)F)c2cc(F)cc(OC(F)(F)C(F)F)c2)ccc1F (stereo partly specified)	Cholesteryl ester transfer protein (Homo sapiens, UniProt P11597)	Y
CC(C)Oc1cc([C@@](Cc2ccccc2)(NC(=O)C(O)C(O)(C(F)(F)F)C(F)(F)F)c2cc(F)cc(OC(F)(F)C(F)F)c2)ccc1F (stereo partly specified)	Cholesteryl ester transfer protein (Homo sapiens, UniProt P11597)	Y
CC(C)Oc1cc([C@@](Cc2ccccc2)(NC(=O)C(N)C(O)C(F)(F)F)c2cc(F)cc(OC(F)(F)C(F)F)c2)ccc1F (stereo partly specified)	Cholesteryl ester transfer protein (Homo sapiens, UniProt P11597)	Y
CC(C)(C)Oc1cc([C@@](Cc2ccccc2)(NC(=O)C(N)C(O)(C(F)(F)F)C(F)(F)F)c2cc(F)cc(OC(F)(F)C(F)F)c2)ccc1F (stereo partly specified)	Cholesteryl ester transfer protein (Homo sapiens, UniProt P11597)	Y
NC(C(=O)N[C@@](Cc1ccccc1)(c1cc(F)cc(OC(F)(F)C(F)F)c1)c1ccc(Cl)cn1)C(O)(C(F)(F)F)C(F)(F)F (stereo in doubt; 9a)	Cholesteryl ester transfer protein (Homo sapiens, UniProt P11597)	N

Check if IC50 falls below 300 nM for CN(C)C(C(=O)N[C@](Cc1ccccc1)(c1ccc(F)cc1)c1cc(F)cc(C(F)(F)F)c1)C(O)(C(F)(F)F)C(F)(F)F (stereo partly specified) .
N

###

Assign clearance to each entry below.
- Run Description: Clearance in Sprague-Dawley rat at 1 mg/kg, iv or 10 mg/kg, po administered via gavage measured upto 24 hrs by LC-MS/MS
- Type: ADME, organism-based
- Experimental Parameters: in vivo
One number for each entry, in mL/min/kg.

Compound	Units Label	Recorded Result
CC(C)Oc1cc([C@@](Cc2ccccc2)(NC(=O)C(N)C(O)(C(F)(F)F)C(F)(F)F)c2cc(F)cc(OC(F)(F)C(F)F)c2)ccc1F (some centres not stated)	mL/min/kg	5.4

Just so you know, measured clearance for NC(C(=O)N[C@@](Cc1ccccc1)(c1cc(F)cc(OC(F)(F)C(F)F)c1)c1ccc(F)c(OC2CC2)c1)C(O)(C(F)(F)F)C(F)(F)F (some centres not stated) came out at 2.9

###

- Run Description: Stability in human liver microsomes assessed as parent compound remaining at 50 uM preincubated for 5 to 7 mins followed by NADPH addition and measured 10 mins post-dose by LC-MS/MS
- Assay type: ADME, Microsome
- Experimental Parameters: read-out: Stability
Assign remaining at 10 min, 50 µM to each entry below.
Give bare numbers, in %.

// known answers, use as guide
Molecule	Units Label	remaining at 10 min, 50 µM
CC(C)Oc1cc([C@@](Cc2ccccc2)(NCC(N)C(O)(C(F)(F)F)C(F)(F)F)c2cc(F)cc(OC(F)(F)C(F)F)c2)ccc1F (some centres not stated)	%	81
NC(C(=O)N[C@@](Cc1ccccc1)(c1cc(F)cc(OC(F)(F)C(F)F)c1)c1ccc(Cl)cn1)C(O)(C(F)(F)F)C(F)(F)F (stereo in doubt; 9a)	%	100
NC(C(=O)N[C@@](Cc1ccccc1)(c1cc(F)cc(OC(F)(F)C(F)F)c1)c1ccc(F)c(OC2CC2)c1)C(O)(C(F)(F)F)C(F)(F)F (some centres not stated)	%	100
CNC(C(=O)N[C@](Cc1ccccc1)(c1ccc(F)cc1)c1cc(F)cc(C(F)(F)F)c1)C(O)(C(F)(F)F)C(F)(F)F (some centres not stated)	%	62
O=C(CC(O)(C(F)(F)F)C(F)(F)F)N[C@@](Cc1ccccc1)(c1cc(F)cc(C(F)(F)F)c1)c1ccc(Cl)cn1	%	92
CC(C)Oc1cc([C@@](Cc2ccccc2)(NC(=O)C(O)C(O)(C(F)(F)F)C(F)(F)F)c2cc(F)cc(OC(F)(F)C(F)F)c2)ccc1F (some centres not stated)	%	89

Continue with the next molecule.
Just so you know, measured remaining at 10 min, 50 µM for CC(C)NC(C(=O)N[C@](Cc1ccccc1)(c1ccc(F)cc1)c1cc(F)cc(C(F)(F)F)c1)C(O)(C(F)(F)F)C(F)(F)F (some centres not stated) came out at 71

###

- Run Description: Oral bioavailability in cynomolgus monkey at 5 mg/kg administered via gavage measured upto 24 hrs by LC-MS/MS
- Type: ADME, organism-based, Macaca fascicularis
- Experimental Parameters: in vivo
Quantity: bioavailability (%)
Give bare numbers, in %.

Just so you know, measured bioavailability for NC(C(=O)N[C@@](Cc1ccccc1)(c1cc(F)cc(OC(F)(F)C(F)F)c1)c1ccc(F)c(OC2CC2)c1)C(O)(C(F)(F)F)C(F)(F)F (stereo partly specified) came out at 27

###

Assign IC50 to each entry below.
- Assayed Target: Voltage-gated inwardly rectifying potassium channel KCNH2 (Homo sapiens, UniProt Q12809)
- Sequence (Q12809 whole entry): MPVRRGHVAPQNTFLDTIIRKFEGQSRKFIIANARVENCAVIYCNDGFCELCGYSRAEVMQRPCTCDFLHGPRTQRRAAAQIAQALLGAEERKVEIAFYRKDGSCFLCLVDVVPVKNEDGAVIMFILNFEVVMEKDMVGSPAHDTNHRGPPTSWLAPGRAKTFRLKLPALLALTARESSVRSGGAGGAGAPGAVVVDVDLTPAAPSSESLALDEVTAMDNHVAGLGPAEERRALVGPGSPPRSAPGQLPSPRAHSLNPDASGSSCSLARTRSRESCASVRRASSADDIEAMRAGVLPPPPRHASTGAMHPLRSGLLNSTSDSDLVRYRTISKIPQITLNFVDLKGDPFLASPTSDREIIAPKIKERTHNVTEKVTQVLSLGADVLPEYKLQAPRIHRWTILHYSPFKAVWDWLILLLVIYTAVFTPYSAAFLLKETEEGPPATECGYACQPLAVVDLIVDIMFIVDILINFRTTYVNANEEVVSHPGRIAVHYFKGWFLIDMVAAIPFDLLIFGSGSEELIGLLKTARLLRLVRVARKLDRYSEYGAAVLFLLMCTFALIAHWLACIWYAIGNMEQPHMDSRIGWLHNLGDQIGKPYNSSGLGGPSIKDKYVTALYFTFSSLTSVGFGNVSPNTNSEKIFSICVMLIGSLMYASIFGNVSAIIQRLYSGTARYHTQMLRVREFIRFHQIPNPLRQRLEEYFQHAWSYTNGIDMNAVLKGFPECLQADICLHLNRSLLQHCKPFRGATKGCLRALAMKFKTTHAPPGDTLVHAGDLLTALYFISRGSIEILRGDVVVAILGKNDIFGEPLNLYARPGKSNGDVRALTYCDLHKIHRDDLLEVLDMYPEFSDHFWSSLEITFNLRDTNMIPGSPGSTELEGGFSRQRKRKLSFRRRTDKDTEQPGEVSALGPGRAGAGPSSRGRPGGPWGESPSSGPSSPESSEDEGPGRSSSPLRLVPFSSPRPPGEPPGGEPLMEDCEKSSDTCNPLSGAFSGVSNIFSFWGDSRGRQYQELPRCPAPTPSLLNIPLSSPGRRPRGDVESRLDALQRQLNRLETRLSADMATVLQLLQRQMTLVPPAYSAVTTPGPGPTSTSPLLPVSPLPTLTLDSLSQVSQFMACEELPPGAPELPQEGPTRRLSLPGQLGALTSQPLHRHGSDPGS
- Run Description: Inhibition of human ERG expressed in HEK293 cells by flux assay

Compound	IC50
CC(C)NC(C(=O)N[C@](Cc1ccccc1)(c1ccc(F)cc1)c1cc(F)cc(C(F)(F)F)c1)C(O)(C(F)(F)F)C(F)(F)F (some centres not stated)	63 µM
CN(C)C(C(=O)N[C@](Cc1ccccc1)(c1ccc(F)cc1)c1cc(F)cc(C(F)(F)F)c1)C(O)(C(F)(F)F)C(F)(F)F (some centres not stated)	16 µM
CC(C)Oc1cc([C@@](Cc2ccccc2)(NCC(O)C(O)(C(F)(F)F)C(F)(F)F)c2cc(F)cc(OC(F)(F)C(F)F)c2)ccc1F (some centres not stated)	12 µM
NC(C(=O)N[C@](Cc1ccccc1)(c1ccc(F)cc1)c1cc(F)cc(C(F)(F)F)c1)C(O)(C(F)(F)F)C(F)(F)F (some centres not stated)	> 80 µM
CNC(C(=O)N[C@](Cc1ccccc1)(c1ccc(F)cc1)c1cc(F)cc(C(F)(F)F)c1)C(O)(C(F)(F)F)C(F)(F)F (some centres not stated)	13 µM

For every listed record, write down its IC50.
1. CC(C)Oc1cc([C@@](Cc2ccccc2)(NCC(N)C(O)(C(F)(F)F)C(F)(F)F)c2cc(F)cc(OC(F)(F)C(F)F)c2)ccc1F (some centres not stated)
2. NC(C(=O)N[C@@](Cc1ccccc1)(c1cc(F)cc(OC(F)(F)C(F)F)c1)c1ccc(Cl)cn1)C(O)(C(F)(F)F)C(F)(F)F (stereo in doubt; 9a)

1. > 80 µM
2. > 80 µM
